Target: Cytosolic phospholipase A2 (Homo sapiens)
Sequence (P47712 whole entry): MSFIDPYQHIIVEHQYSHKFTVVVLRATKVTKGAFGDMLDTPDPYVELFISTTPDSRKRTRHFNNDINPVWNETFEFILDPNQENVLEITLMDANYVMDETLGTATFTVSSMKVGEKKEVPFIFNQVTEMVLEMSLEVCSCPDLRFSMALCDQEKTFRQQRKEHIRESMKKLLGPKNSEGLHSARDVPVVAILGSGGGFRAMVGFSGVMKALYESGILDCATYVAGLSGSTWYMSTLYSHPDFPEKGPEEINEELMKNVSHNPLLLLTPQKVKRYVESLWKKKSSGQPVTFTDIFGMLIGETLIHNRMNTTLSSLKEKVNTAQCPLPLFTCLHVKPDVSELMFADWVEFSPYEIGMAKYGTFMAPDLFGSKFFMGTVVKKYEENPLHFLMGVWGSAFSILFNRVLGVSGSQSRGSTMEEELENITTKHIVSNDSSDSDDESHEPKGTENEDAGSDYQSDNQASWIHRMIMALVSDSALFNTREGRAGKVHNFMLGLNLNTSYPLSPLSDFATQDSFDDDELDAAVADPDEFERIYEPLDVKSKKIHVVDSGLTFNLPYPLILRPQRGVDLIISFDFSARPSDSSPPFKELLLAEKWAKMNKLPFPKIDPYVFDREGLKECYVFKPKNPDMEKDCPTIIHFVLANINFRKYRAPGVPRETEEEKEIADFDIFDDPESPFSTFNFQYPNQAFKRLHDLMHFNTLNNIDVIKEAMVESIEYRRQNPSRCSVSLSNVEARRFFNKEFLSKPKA
Measured Property: IC50 (nM)
Provide the reading as a plain figure in nM.

(Q) Query: IC50; subject: `CCCCCCCCCCOc1ccc(OCC(=O)COc2ccc(C(=O)O)cc2)cc1`
(A) 7
